- TARGET ENTITY: T1, canine OX40L, full length membrane form, expressed on HEK293 cells (canine)
- T1 construct: also called OX40L expressing HEK; HEK OX40L cells
- T1 chain: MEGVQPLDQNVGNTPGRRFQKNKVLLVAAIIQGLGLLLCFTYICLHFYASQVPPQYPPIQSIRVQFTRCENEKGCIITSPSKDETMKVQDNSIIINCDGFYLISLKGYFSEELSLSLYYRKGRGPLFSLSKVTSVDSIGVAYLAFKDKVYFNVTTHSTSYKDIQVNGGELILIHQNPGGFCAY
- EXPERIMENTAL PROTOCOL: flow cytometry, OX40L HEK minus WT HEK
EXPERIMENTAL ENDPOINT: GEO mean difference

INSERT INTO results (binder, experimental_endpoint, assay_value) VALUES
  ('PMX155 (antibody, V domains shown) VH: ELHLVESGGDLVKPAGSLRLSCVASGFTFSSFRMSWVRQSPGKGLQFVAGINSDGYNTQYRDDVKGRFTISRDNTEKTLYLQMNNLRVEDTAMYYCVKDQGSWGGNFDFWGQGTLVTVSS VL: SYGLTQPPSVNVTLRETAHITCGGDSIGSKYVQWIQQIPGQAPVVIIYKDRNRPTGIPERFSGANSGNTATLTISGALAEDEADYYCQVGDSGTSVFGGGTHLTVL', 'GEO mean difference', 730000),
  ('PMX085 (antibody, V domains shown, also called PMX85) VH: EVKLVESGGDLVKPEGSLRLSCVVSGFTFSRYGMSWVRQAPGKGLQWVAYISSDGRSSSYTDAVQGRFTISSDNAKNTLYLQMNSLTTEDTAVYYCAKLGRGFNFNFWGQGTLVTVSS VL: SYVLTQLPSKNVTLKQPAHITCGGDNIGSKSVHWYQQKLGQAPVLIIYYDSSRPTGIPERFSGANSGNTATLTISGALAEDEADYYCQVWDSSASVFGGGTHLTVL', 'GEO mean difference', 826000),
  ('PMX061 (antibody, V domains shown, also called PMX61) VH: EVQLVESGGDLVKPGGSLRLSCVASGFTFSSFPMSWVRQAPGKGLQWVAYINSGGSSTSYADVVKGRFTISRDNAKNTLYLQMNSLRADDTAVYYCARTFPTVATDNWFYYWGQGTLVTVSS VL: SYVLTQLPSKNVTLKQAAHITCGGDNIGSKSVHWYQQKLGQAPVLIIYYDSSRPTGIPERFSGANSGNTATLTISGALAEDEADYYCQVWDSSAKWVFGEGTQLTVL', 'GEO mean difference', '3.26e+06'),
  ('PMX086 (antibody, V domains shown) VH: EVQLVESGGDLVKPGGSLRLSCVASGFTFSSYHMSWVRQAPGKGLQWVAFINSAESSTTYADAVKGRFTISRDNAKNTLYLQMNSLRAEDTAVYYCAGGYIWTHFDYWGQGTLVTVSS VL: SYVLTQLPSVSVTLRQTARITCGGDIIGSKSVYWYQQNLGQAPVLIIYRDTNRPTGIPERFSGASSGNTATLTISGALAEDEADYYCQVWDSSTSVFGGGTHLTVL', 'GEO mean difference', 849000),
  ('PMX025 (antibody, V domains shown, also called PMX25) VH: EVHLVESGGDLVKPGGSLRLSCVASGFTFSSYHMSWVRQAPGKGLQWVAFINAGEISTNYADAVKGRFTISRDNAKNILYLQMNSLRAEDTAVYYCASGHIWIRPFDYWGQGTLVTVSS VL: SYVLTQLPSMSVTLRQTARITCEGDSIGRKRVNWYQQKLGQVPVLIIYDDDSRPSGIPERFSGANSGNTATLTISGALAEDEAEYYCQVWDSSNNWVFGEGTQLTVL', 'GEO mean difference', '2.81e+06');

Reference for the values: patent US20250340659A1
